// endpoint IC50 / system C-Met kinase (SEQ ID NO:10) (Homo sapiens, UniProt P08581)

INSERT INTO results (compound, result) VALUES
  ('Cc1c(Oc2ccnc(-c3cnn(C)c3)c2)ccc(NC(=O)Nc2cc(C(C)C)nn2-c2cccc(C#N)c2)c1F', '< 100 nM');

Next item in the queue.
Task: Request body: readout IC50, system C-Met kinase (SEQ ID NO:10) (Homo sapiens, UniProt P08581), query `CC(C)c1cc(NC(=O)Nc2ccc(Oc3ccnc(-c4cnn(C)c4)c3)cc2F)n(-c2ccc(F)c(C#N)c2)n1` . Return the value.
Result: < 1000 nM

====

biological target: B-Raf(V600E) kinase (SEQ ID NO:11) (Homo sapiens, UniProt P15056, V600E); assay: B-Raf(V600E) kinase assay (pyruvate kinase/lactate dehydrogenase coupled, MEK1 substrate); details: 1 h preincubation at 30° C., ATP 0.2 mM; read-out: B-Raf V600E Enzyme Assay, biochemical IC50
Sequence (P15056 with tags, fused parts or gaps V600E): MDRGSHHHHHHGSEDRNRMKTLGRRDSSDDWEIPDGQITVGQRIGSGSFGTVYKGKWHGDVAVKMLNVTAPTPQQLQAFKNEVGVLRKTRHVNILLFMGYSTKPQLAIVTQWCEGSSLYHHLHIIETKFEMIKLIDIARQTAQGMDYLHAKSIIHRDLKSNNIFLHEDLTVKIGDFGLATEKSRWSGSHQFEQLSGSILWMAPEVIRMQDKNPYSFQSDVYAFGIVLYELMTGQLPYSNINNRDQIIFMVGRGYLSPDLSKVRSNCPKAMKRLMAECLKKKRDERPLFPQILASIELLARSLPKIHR
Counter-ions that a name gives are not always drawn.
Form field: IC50 (one value per entry).

Before answering, review these 10 worked examples.
INSERT INTO results (compound, measuredquantity, result) VALUES
  ('CC(C)n1ncc(NC(=O)Nc2ccc(Oc3ccnc(-c4cnn(C)c4)c3)cc2F)c1-c1ccccc1 [Example 20]', 'IC50', '< 10 µM'),
  ('CCc1cc(NC(=O)Nc2ccc(Oc3ccnc(-c4cnn(C)c4)c3)cc2F)n(-c2cccc(C#N)c2)n1 [Example 9]', 'IC50', '< 1 µM'),
  ('CC(C)(C)c1cc(NC(=O)Nc2ccc(Oc3ccnc(-c4cn[nH]c4)c3)cc2F)n(-c2cccc(C#N)c2)n1 [Example 3, hydrochloride]', 'IC50', '< 0.1 µM'),
  ('Cc1c(Oc2ccnc(-c3cnn(C)c3)c2)ccc(NC(=O)Nc2cc(C(C)C)nn2-c2cccc(C#N)c2)c1F [Example 12]', 'IC50', '< 0.1 µM'),
  ('Cc1ncc(NC(=O)Nc2ccc(Oc3ccnc(-c4cnn(C)c4)c3)cc2F)c(-c2ccccc2)n1 [Example 14]', 'IC50', '< 100 µM'),
  ('CCc1cc(NC(=O)Nc2ccc(Oc3ccnc(-c4cnn(CC)c4)c3)cc2F)n(-c2cccc(C#N)c2)n1 [Example 18]', 'IC50', '< 1 µM'),
  ('CCn1ncc(NC(=O)Nc2ccc(Oc3ccnc(-c4cnn(C)c4)c3)cc2F)c1-c1ccccc1 [Example 22, hydrochloride]', 'IC50', '< 10 µM'),
  ('CCCn1cc(-c2cc(Oc3ccc(NC(=O)Nc4cc(CC)nn4-c4cccc(C#N)c4)c(F)c3)ccn2)cn1 [Example 15]', 'IC50', '< 1 µM'),
  ('CC(C)n1cc(NC(=O)Nc2ccc(Oc3ccnc(-c4cnn(C)c4)c3)cc2F)c(-c2ccccc2)n1 [Example 21]', 'IC50', '< 1 µM'),
  ('CC(C)c1cc(NC(=O)Nc2ccc(Oc3ccnc(-c4cnn(C)c4)c3)c(F)c2F)n(-c2cccc(C#N)c2)n1 [Example 13]', 'IC50', '< 0.1 µM');

Task: Bench note: what IC50 did CC(C)c1cc(NC(=O)Nc2ccc(Oc3ccnc(-c4cnn(C)c4)c3)c(F)c2)n(-c2cccc(C#N)c2)n1 [Example 16] show?
Result: < 0.1 µM

Task: Could you share which IC50 value was measured for CC(C)c1cc(NC(=O)Nc2ccc(Oc3ccnc(-c4cnn(C)c4)c3)cc2F)n(-c2cccc(C#N)c2)n1 [Example 2] ?
Result: < 0.1 µM

Task: Consider the compound Cn1cc(-c2cc(Oc3ccc(NC(=O)Nc4cc(-c5ccccc5F)nn4C)c(F)c3F)ccn2)cn1 [Example 25] and give its measured IC50.
Result: < 1 µM

Task: Param item = Cn1cc(-c2cc(Oc3ccc(NC(=O)Nc4cc(C(C)(C)C)nn4-c4cccc(C#N)c4)c(F)c3)ccn2)cn1 [Example 4, hydrochloride] ; retrieve measured IC50.
Result: < 0.1 µM

Task: Could you share which IC50 value was measured for CCc1cc(NC(=O)Nc2ccc(Oc3ccnc(-c4cnn(C)c4)c3)cc2F)n(-c2ccc(CO)cc2)n1 [Example 19] ?
Result: < 1 µM

Task: Could you share which IC50 value was measured for Cc1ccc(-n2nc(C(C)C)cc2NC(=O)Nc2ccc(Oc3ccnc(-c4cnn(C)c4)c3)cc2F)cc1C#N [Example 11] ?
Result: < 0.1 µM
